- measurement target: UniProt P41149
- Sequence (P41149 whole entry): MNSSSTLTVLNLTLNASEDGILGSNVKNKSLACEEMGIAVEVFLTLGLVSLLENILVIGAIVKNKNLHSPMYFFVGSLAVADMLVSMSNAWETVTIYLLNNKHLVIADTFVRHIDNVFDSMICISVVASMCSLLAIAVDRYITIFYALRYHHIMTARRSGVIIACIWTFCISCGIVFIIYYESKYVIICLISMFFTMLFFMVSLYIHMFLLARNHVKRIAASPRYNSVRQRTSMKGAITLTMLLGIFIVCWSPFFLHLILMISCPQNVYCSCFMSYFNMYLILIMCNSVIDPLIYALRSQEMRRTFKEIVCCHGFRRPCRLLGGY
- assay info: Effective concentration for mouse Melanocortin-5 receptor
pEC50: −log10 of the molar value. Where a SMILES comes first, the peptide text is derived from it. Bridges are numbered along the chain shown (N, C = ends).
quantity measured: pEC50

>  <molecule>
C[C@@H]1NC(=O)[C@H](CC(N)=O)NC(=O)[C@H](Cc2c[nH]c3ccccc23)NC(=O)[C@H](CCCN=C(N)N)NC(=O)[C@@H](Cc2ccccc2)NC(=O)C2(CCc3ccccc3C2)NC(=O)[C@@H](NC(=O)[C@@H](N)Cc2ccc(O)cc2)CC(=O)NC[C@@H](C(=O)N[C@@H](Cc2ccc(O)cc2)C(N)=O)NC(=O)[C@H](Cc2ccccc2)NC1=O (mixture of isomers)

>  <bound type>
=

>  <assay value>
6.36

$$$$
>  <molecule>
C[C@@H]1NC(=O)[C@H](CC(N)=O)NC(=O)[C@@H]2CCCN2C(=O)[C@H](CCCNC(=N)N)NC(=O)[C@@H](Cc2ccccc2)NC(=O)[C@H](Cc2c[nH]cn2)NC(=O)[C@@H](NC(=O)[C@@H](N)Cc2ccc(O)cc2)CC(=O)NC[C@@H](C(=O)N[C@@H](Cc2ccc(O)cc2)C(N)=O)NC(=O)[C@H](Cc2ccccc2)NC1=O

>  <bound type>
=

>  <assay value>
6.15

$$$$
>  <molecule>
C[C@@H]1NC(=O)[C@H](CC(N)=O)NC(=O)[C@H](Cc2c[nH]c3ccccc23)NC(=O)[C@H](CCCCN)NC(=O)[C@@H](Cc2ccccc2)NC(=O)[C@H](Cc2c[nH]cn2)NC(=O)[C@@H](NC(=O)[C@@H](N)Cc2ccc(O)cc2)CC(=O)NC[C@@H](C(=O)N[C@@H](Cc2ccc(O)cc2)C(N)=O)NC(=O)[C@H](Cc2ccccc2)NC1=O

>  <bound type>
=

>  <assay value>
6.10

$$$$
>  <molecule>
C[C@@H]1NC(=O)[C@H](CC(N)=O)NC(=O)[C@H](Cc2ccccc2)NC(=O)[C@H](Cc2ccccc2)NC(=O)[C@H](CCCNC(=N)N)NC(=O)[C@@H](NC(=O)[C@@H](N)Cc2ccc(O)cc2)CSSC[C@@H](C(=O)N[C@@H](Cc2ccc(O)cc2)C(N)=O)NC(=O)[C@H](Cc2ccccc2)NC1=O (H-YCRFFNAFCY-NH2; disulfide 2-9)

>  <bound type>
<

>  <assay value>
4.00

$$$$
>  <molecule>
C[C@@H]1NC(=O)[C@H](CC(N)=O)NC(=O)[C@H](C)NC(=O)[C@H](CCCNC(=N)N)NC(=O)[C@@H](Cc2ccccc2)NC(=O)[C@H](Cc2c[nH]cn2)NC(=O)[C@@H](NC(=O)[C@@H](N)Cc2ccc(O)cc2)CC(=O)NC[C@@H](C(=O)N[C@@H](Cc2ccc(O)cc2)C(N)=O)NC(=O)[C@H](Cc2ccccc2)NC1=O

>  <bound type>
=

>  <assay value>
7.30

$$$$

Where these numbers come from: ChEMBL document CHEMBL1143614
